Assay read-out IC50; system under study: UniProtKB Q16539.
Sequence (Q16539 whole entry): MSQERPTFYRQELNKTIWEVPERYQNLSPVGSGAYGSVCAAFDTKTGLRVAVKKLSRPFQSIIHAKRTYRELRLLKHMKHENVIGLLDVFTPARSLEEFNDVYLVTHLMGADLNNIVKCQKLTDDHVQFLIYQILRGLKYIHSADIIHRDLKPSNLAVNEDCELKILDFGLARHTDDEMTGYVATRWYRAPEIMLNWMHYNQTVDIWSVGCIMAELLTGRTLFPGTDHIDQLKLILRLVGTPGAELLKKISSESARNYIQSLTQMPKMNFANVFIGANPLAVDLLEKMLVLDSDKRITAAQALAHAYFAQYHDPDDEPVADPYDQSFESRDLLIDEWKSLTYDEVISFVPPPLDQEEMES

In the examples that follow, each entry is paired with its recorded IC50.
> print(dat)
                            compound.string  observed.measurement
1  CC(C)(C)c1cc(NC(=O)Nc2ccc(Oc3ccnc(Nc4ccc5c(cnn5CCN5CCOCC5)c4)n3)c3ccccc23)n(-c2ccc(OCCN3CCOCC3)nc2)n1                  5 nM
2  Cc1ccc(-n2nc(C(C)(C)C)cc2NC(=O)Nc2ccc(Oc3ccnc(Nc4ccc5onc(N)c5c4)n3)c3ccccc23)cc1                 81 nM
3  CC(C)(C)c1cc(NC(=O)Nc2ccc(Oc3ccnc(Nc4ccc5[nH]ncc5c4)n3)c3ccccc23)n(-c2ccc(O)cc2)n1                 80 nM
4  Cc1ccc(-n2nc(C(C)(C)C)cc2NC(=O)Nc2ccc(Oc3ccnc(Nc4cccc5[nH]ccc45)n3)c3ccccc23)cc1                101 nM
5  CC(C)(C)c1cc(NC(=O)Nc2ccc(Oc3ccnc(Nc4ccc5c(c4)OCCO5)n3)c3ccccc23)n(-c2ccc(OCCN3CCOCC3)cc2)n1                 39 nM

Could you share which IC50 value was measured for `CC(C)(C)c1cc(NC(=O)Nc2ccc(Oc3ccnc(Nc4ccc5[nH]ncc5c4)n3)c3ccccc23)n(-c2cccc(CN3CCCC3=O)c2)n1` ?
29 nM

====

system: LPS-induced IL-8 release in d-U937 cells; test: LPS-induced IL-8 release in d-U937 cells; type: cell-based; settings: Homo sapiens, dU937, read-out: LPS Induced Release of Cytokine in d-937 Cells IL-8 IC50
Provide the recorded pIC50 for the entries that follow.
Answers are plain numbers, as −log10 of the molar value.

Sample records with pIC50:
> print(dat)
                            compound.string  observed.measurement
1  Cc1cc(Nc2nccc(Oc3ccc(NC(=O)Nc4cc(C(C)(C)C)nn4-c4ccc(OCCN5CCOCC5)nc4)c4ccccc34)n2)cc2cn[nH]c12                  8.80
2  CC(C)(C)c1cc(NC(=O)Nc2ccc(Oc3ccnc(Nc4ccc5[nH]nnc5c4)n3)c3ccccc23)n(-c2ccc(OCCN3CCOCC3)cc2)n1                  8.80
3  Cc1ccc(-n2nc(C(C)(C)C)cc2NC(=O)Nc2ccc(Oc3cc(Nc4ccc5[nH]ncc5c4)ncn3)c3ccccc23)cc1                  8.57
4  Cc1cc(Nc2nccc(Oc3ccc(NC(=O)Nc4cc(C(C)C)nn4-c4cccc(OCCN5CCOCC5)c4)c4ccccc34)n2)cc2cn[nH]c12                  7.36
5  CC(C)(C)c1cc(NC(=O)Nc2ccc(Oc3ccnc(Nc4ccc5[nH]ncc5c4)n3)c3ccccc23)n(-c2cccc(OCCN3CCOCC3)c2)n1                  7.61
6  Cc1ccc(-n2nc(C(C)(C)C)cc2NC(=O)Nc2ccc(Oc3ccnc(Nc4cccc5[nH]ccc45)n3)c3ccccc23)cc1                  8.59
7  CC(C)(C)c1cc(NC(=O)Nc2ccc(Oc3ccnc(Nc4ccc5c(c4)OCCO5)n3)c3ccccc23)n(-c2ccc(OCCN3CCOCC3)cc2)n1                  7.60
8  CC(C)(C)c1cc(NC(=O)Nc2ccc(Oc3ccnc(Nc4ccc5[nH]ncc5c4)n3)c3ccccc23)n(-c2ccc(O)cc2)n1                  7.76

Could you tell me pIC50 for each of these compounds? They are listed below.
1. COc1ccc(-n2nc(C(C)C)cc2NC(=O)Nc2ccc(Oc3cc(Nc4ccc5[nH]ncc5c4)ncn3)c3ccccc23)cc1
2. CC(C)(C)c1cc(NC(=O)Nc2ccc(Oc3ccnc(Nc4ccc5[nH]ncc5c4)n3)c3ccccc23)n(-c2ccc(OCCN3CCOCC3)cc2)n1
3. CC(C)(C)c1cc(NC(=O)Nc2ccc(Oc3ccnc(Nc4ccc5sncc5c4)n3)c3ccccc23)n(-c2ccc(OCCN3CCOCC3)cc2)n1
4. CC(C)(C)c1cc(NC(=O)Nc2ccc(Oc3ccnc(Nc4ccc5c(c4)CS(=O)(=O)C5)n3)c3ccccc23)n(-c2ccc(OCCN3CCOCC3)cc2)n1
5. CC(C)(C)c1cc(NC(=O)Nc2ccc(Oc3ccnc(Nc4ccc5oc(=O)[nH]c5c4)n3)c3ccccc23)n(-c2ccc(OCCN3CCOCC3)cc2)n1
6. COc1ccc(-n2nc(C(C)C)cc2NC(=O)Nc2ccc(Oc3ccnc(Nc4ccc5[nH]nc(C(=O)N(C)C)c5c4)n3)c3ccccc23)cc1
7. COc1ccc(-n2nc(C(C)(C)C)cc2NC(=O)Nc2ccc(Oc3ccnc(Nc4cc(C)c5[nH]ncc5c4)n3)c3ccccc23)cc1
8. Cc1ccc(-n2nc(C(C)(C)C)cc2NC(=O)Nc2ccc(Oc3ccnc(Nc4ccc5[nH]nc(C(=O)NCCN6CCOCC6)c5c4)n3)c3ccccc23)cc1

1: 7.82; 2: 8.70; 3: 8.13; 4: 8.89; 5: 9.52; 6: 7.68; 7: 8.85; 8: 7.46

Look up pIC50 for the entries below, preserving their order.
1. Cc1ccc(-n2nc(C(C)(C)C)cc2NC(=O)Nc2ccc(Oc3ccnc(Nc4cc(C)c5[nH]ncc5c4)n3)c3ccccc23)cc1
2. COc1ccc(-n2nc(C(C)(C)C)cc2NC(=O)Nc2ccc(Oc3ccnc(Nc4ccc5c(cnn5CCN5CCOCC5)c4)n3)c3ccccc23)cc1

1. 9.15
2. 8.74

Provide pIC50 for all items below, preserving their order.
1. COc1ccc(-n2nc(C(C)(C)C)cc2NC(=O)Nc2ccc(Oc3ccnc(Nc4ccc5[nH]nc(OCCN6CCOCC6)c5c4)n3)c3ccccc23)cc1
2. Cc1ccc(-n2nc(C(C)(C)C)cc2NC(=O)Nc2ccc(Oc3ccnc(Nc4ccc5c(c4)CC(=O)N5C)n3)c3ccccc23)cc1
3. CC(C)(C)c1cc(NC(=O)Nc2ccc(Oc3ccnc(Nc4ccc5c(cnn5CCN5CCOCC5)c4)n3)c3ccccc23)n(-c2ccc(OCCN3CCOCC3)cc2)n1
4. Cc1ccc(-n2nc(C(C)(C)C)cc2NC(=O)Nc2ccc(Oc3ccnc(Nc4ccc5ncn(C)c5c4)n3)c3ccccc23)cc1
5. Cc1ccc(-n2nc(C(C)(C)C)cc2NC(=O)Nc2ccc(Oc3ccnc(Nc4ccc5c(cnn5C)c4)n3)c3ccccc23)cc1
6. Cc1ccc(-n2nc(C(C)(C)C)cc2NC(=O)Nc2ccc(Oc3ccnc(Nc4cccc5cc[nH]c45)n3)c3ccccc23)cc1

1. 8.80
2. 8.66
3. 6.72
4. 9.22
5. 8.66
6. 8.13
